# Test system: CCRF-CEM
# Protocol Text: NCI tumour cell line growth inhibition, 48 h
Active and inactive are the calls of the source. Cut-off read from the data, not from the text of the source: active = GI50 up to about 1.1 µM and inactive = higher.
Readout: GI50

These solved cases illustrate the format of a correct answer.
# Compound, Assay System, GI50
records = [
    ("COc1ccc(CCN2CCc3c(C)c(C#N)c4nc5ccccc5n4c32)cc1OC", "CCRF-CEM", "35.4 µM (inactive)"),
    ("Cn1c(=O)c2c(no[n+]2[O-])c2ccccc21", "CCRF-CEM", "12.8 µM (inactive)"),
]

I need GI50 for every entry listed below, if you could help.
1. Nc1n[n+]([O-])c2cc([N+](=O)[O-])ccc2[n+]1[O-]
2. CC(=O)Oc1ccccc1C(=O)O
3. Cc1ccc([S+]([O-])(=Nc2ccccc2)C(C(C)C)C(C)(C)Cl)cc1 (stereo unspecified)
4. CC(C)(C)c1cc(C(C)(C)C)c(SC2OC(CO)C(O)C(O)C2O)c(O)c1O (stereo unspecified)

Reply:
["1.62 µM (inactive)", "> 100 µM (inactive)", "9.1 µM (inactive)", "5.27 µM (inactive)"]
